- system tested: MMP-2 (Homo sapiens, UniProt P08253)
- Construct: made in house; host or cells: MMP-2-transfected p2AHT2 cells
- Sequence (P08253 110-660): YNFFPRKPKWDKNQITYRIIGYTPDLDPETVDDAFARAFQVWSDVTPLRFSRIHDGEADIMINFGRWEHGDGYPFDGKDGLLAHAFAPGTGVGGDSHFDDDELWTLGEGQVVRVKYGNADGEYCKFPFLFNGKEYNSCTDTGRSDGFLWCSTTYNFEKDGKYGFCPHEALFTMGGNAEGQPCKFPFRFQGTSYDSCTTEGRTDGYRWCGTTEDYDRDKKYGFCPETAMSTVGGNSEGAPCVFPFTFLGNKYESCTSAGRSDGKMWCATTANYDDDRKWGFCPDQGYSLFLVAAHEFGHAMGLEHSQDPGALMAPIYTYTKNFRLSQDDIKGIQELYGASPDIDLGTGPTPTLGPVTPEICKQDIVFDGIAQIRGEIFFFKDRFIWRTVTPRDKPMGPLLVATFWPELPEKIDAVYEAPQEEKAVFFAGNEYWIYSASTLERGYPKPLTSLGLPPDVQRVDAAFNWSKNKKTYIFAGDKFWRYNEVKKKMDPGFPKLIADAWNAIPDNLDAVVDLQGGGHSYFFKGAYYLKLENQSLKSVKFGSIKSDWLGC
- protocol notes: MMP-2 inhibition (in vitro Ki)
- Type: biochemical
- assay context: Table 9; read-out: MMP-2 Ki (IC-50)
pKi: −log10 of the molar value.
Could you please classify the records by pKi using these ranges: low band (below 7), middle band (7 to below 9), high band (9 or more)

Category lookup for the compound `O=C(NO)C1(S(=O)(=O)N2CCN(c3ccc(CCC(F)(F)C(F)(F)F)cn3)CC2)CCOCC1`
high band

Proceed to `O=C(CCCCC1CCN(S(=O)(=O)C2(C(=O)NO)CCOCC2)CC1)N1CCN(c2ccccc2)CC1`
middle band

Proceed to `CCC(F)(F)c1ccc(C2CCN(S(=O)(=O)C3(C(=O)NO)CCOCC3)CC2)nc1`
middle band

Proceed to `COCCCc1ccc(C2CCN(S(=O)(=O)C3(C(=O)NO)CCOCC3)CC2)nc1`
middle band

Proceed to `O=C(/C=C/C=C/C1CCN(S(=O)(=O)C2(C(=O)NO)CCOCC2)CC1)N1CCc2ccccc21`
low band

Proceed to O=C(CCCCC1CCN(S(=O)(=O)C2(C(=O)NO)CCOCC2)CC1)N1CC2CCCCC2C1 (stereo not shown)
middle band

Proceed to `O=C(NO)C1(S(=O)(=O)N2CCC(c3cnc(CCC(F)(F)F)cn3)CC2)CCOCC1`
middle band

Proceed to `C#CCN(C)C(=O)CCCCC1CCN(S(=O)(=O)C2(C(=O)NO)CCOCC2)CC1`
middle band

Proceed to `CN(C(=O)CCCC1CCN(S(=O)(=O)C2(C(=O)NO)CCOCC2)CC1)c1ccccc1`
low band

Proceed to `O=C(NO)C1(S(=O)(=O)N2CCC(c3cnc(CCC4CC4)cn3)CC2)CCOCC1`
middle band

Proceed to `O=C(CCCCN1CCN(S(=O)(=O)C2(C(=O)NO)CCOCC2)CC1)N1CCCCC1`
low band

Proceed to `O=C(NO)C1(S(=O)(=O)N2CCC(c3ccc(CCC(F)(F)C(F)(F)F)cn3)CC2)CCNCC1`
middle band

Proceed to `O=C(CCCCN1CCN(S(=O)(=O)C2(C(=O)NO)CCOCC2)CC1)c1cccc(OC(F)(F)F)c1`
low band

Proceed to `O=C(NO)C1(S(=O)(=O)N2CCC(c3ccc(/C=C/C(F)(F)C(F)(F)F)cn3)CC2)CCOCC1`
high band

Proceed to `O=C(NO)C1(S(=O)(=O)N2CCC(N3CCN(c4ccc(F)cc4)CC3)CC2)CCOCC1`
low band

Proceed to `COCc1ccc(C2CCN(S(=O)(=O)C3(C(=O)NO)CCOCC3)CC2)nc1`
middle band

Proceed to `CC(C)CN(C)C(=O)CCCCC1CCN(S(=O)(=O)C2(C(=O)NO)CCOCC2)CC1`
low band

Proceed to `CN(CC1CCCCC1)C(=O)CCCC1CCN(S(=O)(=O)C2(C(=O)NO)CCOCC2)CC1`
low band

Proceed to `O=C(NO)C(CC1CC1)(CC1CC1)S(=O)(=O)N1CCC(c2ccc(CCC(F)(F)F)cn2)CC1`
middle band

Proceed to `CCCC#Cc1ccc(C2CCN(S(=O)(=O)C3(C(=O)NO)CCOCC3)CC2)nc1`
high band

Proceed to `O=C(NO)C1(S(=O)(=O)N2CCC(c3ccc(CCC(F)F)cn3)CC2)CCOCC1`
high band

Proceed to `N#Cc1ccc(N2CCN(S(=O)(=O)C3(C(=O)NO)CCOCC3)CC2)cc1F`
middle band

Proceed to `CC1(C)O[C@H]2C[C@@](C(=O)NO)(S(=O)(=O)N3CCC(c4ccc(CCC(F)(F)C(F)(F)F)cn4)CC3)C[C@H]2O1`
high band

Proceed to `Cn1nnc(-c2ccc(C3CCN(S(=O)(=O)C4(C(=O)NO)CCOCC4)CC3)cc2)n1`
high band

Hello, the source for this data is patent US20050209278A1, in case you need it.
